Biological target: UniProt:P35869
Assay: DRE-driven luciferase activation via AHR – HG2L7.5c1 HepG2 cells, luminescence, AHR activator project, late-stage follow-up (AID 602171)
Conditions: HG2L7.5c1 HepG2 DRE-luciferase reporter, 24 h, at 10 µM, hits give high values
Assay Readout: activation (% of TCDD max) (%)
Response body: numeric value in %, unit text excluded.

Completed entries (count: 4):
INSERT INTO assay_data (compound_smiles, measured_result) VALUES
  ('COc1ccccc1NC(=O)c1ccc2c(c1)nnn2C', 36),
  ('CN1CCN(CCCNC(=O)c2cc3c(-c4ccc(Cl)cc4)nn(C)c3s2)CC1', 111),
  ('Cc1nnc(N2C(=O)c3cccc4c([N+](=O)[O-])ccc(c34)C2=O)s1', 98),
  ('Cc1ccc(-c2cc(-c3cccs3)[nH]n2)c(O)c1', 99);

Now let's try a different one.
Request: For the compound COc1ccccc1NC(=O)c1ccc(C(=O)Nc2ccccc2OC)nc1 , what activation (% of TCDD max) is on record?
Response: 88

----------
Target: Aryl hydrocarbon receptor (Homo sapiens)
Assay: DRE-driven luciferase activation via AHR – HG2L7.5c1 HepG2 cells, luminescence, AHR activator project, late-stage follow-up (AID 602171)
Conditions: HG2L7.5c1 HepG2 DRE-luciferase reporter, 24 h, at 10 µM, hits give high values
compounds and their reported activation (% of TCDD max)
Response body: numeric value in %, unit text excluded.

INSERT INTO assay_data (compound_smiles, assay_readout, measured_result) VALUES
  ('Cn1c(N)c(C(=O)Nc2ccccc2F)sc1=S', 'activation (% of TCDD max)', 106),
  ('CCOc1ccccc1NC(=O)c1ccc2nccnc2c1', 'activation (% of TCDD max)', 126);

Request: For the compound O=C(Nc1cccc(Cl)c1)c1cccnn1 , what activation (% of TCDD max) is on record?
Response: 44

----------
Biological target: Aryl hydrocarbon receptor (Homo sapiens) (UniProt P35869)
Sequence (P35869 whole entry, looked up): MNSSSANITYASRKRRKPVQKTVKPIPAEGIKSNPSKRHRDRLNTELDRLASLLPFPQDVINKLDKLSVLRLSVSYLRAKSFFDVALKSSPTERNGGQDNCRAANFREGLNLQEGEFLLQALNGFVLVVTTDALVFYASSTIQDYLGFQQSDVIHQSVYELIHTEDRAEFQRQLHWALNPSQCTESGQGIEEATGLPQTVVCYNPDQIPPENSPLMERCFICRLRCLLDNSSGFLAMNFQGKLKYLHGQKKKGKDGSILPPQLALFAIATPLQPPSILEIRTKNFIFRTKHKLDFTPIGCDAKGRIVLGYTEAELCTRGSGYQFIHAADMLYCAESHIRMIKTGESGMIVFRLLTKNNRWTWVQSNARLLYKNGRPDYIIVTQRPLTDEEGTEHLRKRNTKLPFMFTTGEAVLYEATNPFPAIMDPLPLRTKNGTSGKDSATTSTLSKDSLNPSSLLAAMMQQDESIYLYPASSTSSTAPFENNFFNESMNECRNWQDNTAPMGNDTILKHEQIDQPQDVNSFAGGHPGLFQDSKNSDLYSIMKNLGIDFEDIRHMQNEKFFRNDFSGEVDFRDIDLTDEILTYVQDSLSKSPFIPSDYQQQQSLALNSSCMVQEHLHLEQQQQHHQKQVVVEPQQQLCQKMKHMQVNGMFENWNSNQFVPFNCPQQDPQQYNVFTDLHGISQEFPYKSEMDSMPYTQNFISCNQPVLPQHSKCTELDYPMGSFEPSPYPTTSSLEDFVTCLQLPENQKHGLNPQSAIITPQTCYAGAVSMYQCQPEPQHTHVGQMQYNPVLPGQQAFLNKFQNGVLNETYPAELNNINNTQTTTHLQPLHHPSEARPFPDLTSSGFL
Experiment: DRE-driven luciferase activation via AHR – HG2L7.5c1 HepG2 cells, luminescence, AHR activator project, late-stage follow-up (AID 602171)
Details: HG2L7.5c1 HepG2 DRE-luciferase reporter, 24 h, at 10 µM, hits give high values
Assay Readout: activation (% of TCDD max)

INSERT INTO results (compound_smiles, assay_readout, measured_result) VALUES
  ('Cc1nc(N)nc(Nc2ccc(Cl)cc2)c1Br', 'activation (% of TCDD max)', '78%');

Request: For the compound CCC(=O)Nc1cc(OC)c(NC(=O)c2ccccc2)cc1OC , what activation (% of TCDD max) is on record?
Response: 89%

Request: For the compound CCOc1ccc(-c2cc(C)n3nc(C(N)=O)cc3n2)cc1 , what activation (% of TCDD max) is on record?
Response: 41%

Request: For the compound COc1ccc(Cl)cc1C(=O)Nc1ccc(N(C)C(C)=O)cc1 , what activation (% of TCDD max) is on record?
Response: 165%

Request: For the compound Cc1ccccc1-c1nc(-c2cccnc2)no1 , what activation (% of TCDD max) is on record?
Response: 117%

----------
Biological target: Aryl hydrocarbon receptor (Homo sapiens) (UniProt P35869)
Assay: DRE-driven luciferase activation via AHR – HG2L7.5c1 HepG2 cells, luminescence, AHR activator project, late-stage follow-up (AID 602171)
Details: HG2L7.5c1 HepG2 DRE-luciferase reporter, 24 h, at 10 µM, hits give high values
Assay Readout: activation (% of TCDD max)

INSERT INTO results (compound_smiles, assayed_target, measured_result) VALUES
  ('CC(=O)c1ccc(NC(=O)c2cc(Cl)nc3ccccc23)cc1', 'Aryl hydrocarbon receptor (Homo sapiens) (UniProt P35869)', '104%'),
  ('Cn1c(C(=O)N2CCC(C(N)=O)CC2)cc2cc(Cl)ccc21', 'Aryl hydrocarbon receptor (Homo sapiens) (UniProt P35869)', '48%'),
  ('COc1cc2ccccc2cc1C(=O)Nc1ccc(C)cc1', 'Aryl hydrocarbon receptor (Homo sapiens) (UniProt P35869)', '113%');

Request: Query the reported activation (% of TCDD max) for Aryl hydrocarbon receptor (Homo sapiens) (UniProt P35869); item: CCOC(=O)Cc1cc(-c2ccc(O)cc2)nc2ccc3ccccc3c12
Response: 109%

Request: Query the reported activation (% of TCDD max) for Aryl hydrocarbon receptor (Homo sapiens) (UniProt P35869); item: COc1ccc(NC(=O)c2cccc3c(Br)cccc23)cc1
Response: 128%

Request: Query the reported activation (% of TCDD max) for Aryl hydrocarbon receptor (Homo sapiens) (UniProt P35869); item: O=C(Nc1ccon1)c1cnc2sccn2c1=O
Response: 75%
